Target: T1, 4H3606-AA
T1 chain: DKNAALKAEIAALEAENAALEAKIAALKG
Assay: two-hybrid library CCmax;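 note: natural log of median RNA to DNA barcode read ratio; higher means stronger binding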
Settings: mean of both orientations
outcome.measure: interaction score

1. DKIAALEAKNAALKAEIAALKAEIAALEG [4H2505-AA]
2. DKIAALEAKNAALKAKNAALKAEIAALEG [4H2553-AA]
3. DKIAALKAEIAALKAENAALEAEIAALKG [4H2642-AA]
Query :: Please rank the 3 items above; order by interaction score, the highest number leading. # the answer lists labels in the order requested
Result :: 2, 1, 3
